System: Streptomyces (NA 2B3)
test: Antibacterial activity using discs in Petri dishes, strain Streptomyces NA2B3
Format: cell-based
measurement-conditions: Table 5; 20%
Give inhibition diameter for every item shown.
Express your answer in cm, writing the number without its unit.

The observed inhibition diameter for O=CC=Cc1ccccc1 [Cinnamaldehyde] when tested with Streptomyces (NA 2B3) stands at 3.0

The observed inhibition diameter for Cc1ccc(C(C)C)c(O)c1 [Thymol] when tested with Streptomyces (NA 2B3) stands at 1.7

The observed inhibition diameter for CC[C@H]1OC(=O)[C@H](C)[C@@H](O[C@H]2C[C@@](C)(OC)[C@@H](O)[C@H](C)O2)[C@H](C)[C@@H](O[C@@H]2O[C@H](C)C[C@H](N(C)C)[C@H]2O)[C@](C)(O)C[C@@H](C)C(=O)[C@H](C)[C@@H](O)[C@]1(C)O [Erythromycin, reference compound] when tested with Streptomyces (NA 2B3) stands at 4.3

The observed inhibition diameter for Cc1ccc(C(C)C)cc1O [Carvacrol] when tested with Streptomyces (NA 2B3) stands at 2.2

Reference source: patent US10888089B2
